ASSAYED TARGET: EGFR T790M/L858R Ba/F3 cell line (Homo sapiens, UniProt P00533, T790M/L858R, cells depend on it)
Construct: The constructs were shuttled into the retroviral vector JP1540 using the BD Creator™ System (BD Biosciences)
Sequence (P00533 whole entry T790M/L858R): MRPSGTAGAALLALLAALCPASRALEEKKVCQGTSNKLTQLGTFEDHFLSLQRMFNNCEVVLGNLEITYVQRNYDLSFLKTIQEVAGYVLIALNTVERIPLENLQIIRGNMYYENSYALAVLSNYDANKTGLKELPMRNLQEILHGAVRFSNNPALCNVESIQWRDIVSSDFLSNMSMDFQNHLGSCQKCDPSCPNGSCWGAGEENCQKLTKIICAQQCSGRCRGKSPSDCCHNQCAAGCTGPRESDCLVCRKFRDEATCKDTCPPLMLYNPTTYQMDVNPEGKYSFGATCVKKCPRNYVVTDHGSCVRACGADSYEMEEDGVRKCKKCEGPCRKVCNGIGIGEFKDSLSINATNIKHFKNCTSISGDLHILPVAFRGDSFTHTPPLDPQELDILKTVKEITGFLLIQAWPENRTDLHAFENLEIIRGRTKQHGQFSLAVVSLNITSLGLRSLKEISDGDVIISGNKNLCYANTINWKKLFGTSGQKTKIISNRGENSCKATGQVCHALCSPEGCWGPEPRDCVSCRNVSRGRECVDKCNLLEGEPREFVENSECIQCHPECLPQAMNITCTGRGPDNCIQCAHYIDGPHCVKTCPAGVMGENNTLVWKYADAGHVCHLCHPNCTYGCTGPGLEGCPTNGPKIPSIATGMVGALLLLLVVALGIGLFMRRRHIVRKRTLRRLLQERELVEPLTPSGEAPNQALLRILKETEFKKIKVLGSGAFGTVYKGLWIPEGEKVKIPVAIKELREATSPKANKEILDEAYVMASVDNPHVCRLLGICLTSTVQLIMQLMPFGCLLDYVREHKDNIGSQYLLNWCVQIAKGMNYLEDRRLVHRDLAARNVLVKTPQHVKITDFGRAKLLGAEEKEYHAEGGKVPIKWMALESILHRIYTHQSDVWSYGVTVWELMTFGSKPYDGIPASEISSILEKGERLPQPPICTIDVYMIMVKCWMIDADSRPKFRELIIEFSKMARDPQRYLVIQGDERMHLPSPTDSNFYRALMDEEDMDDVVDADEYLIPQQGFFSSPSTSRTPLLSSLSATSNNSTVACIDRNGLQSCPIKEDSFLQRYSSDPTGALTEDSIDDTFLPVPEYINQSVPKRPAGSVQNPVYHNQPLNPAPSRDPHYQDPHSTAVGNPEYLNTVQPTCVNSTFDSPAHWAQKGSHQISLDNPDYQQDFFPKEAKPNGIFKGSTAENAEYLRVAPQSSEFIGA
METHOD SUMMARY: Ba/F3 cell proliferation (MTS assay), EGFR T790M/L858R
Format: cell-based, murine
REPORTED CONDITIONS: absence of cetuximab; read-out: Ba/F3 cellular activity (EC50) T790M/L858R
pEC50: −log10 of the molar value.
EXPERIMENTAL ENDPOINT: pEC50

molecule="O=C(CCl)Nc1ccc2c(c1)N(Cc1ccccc1)C(=O)c1cc(-c3ccc4[nH]ccc4c3)ccc1N2 [I-2]" experimental_endpoint=pEC50 assay_value="> 6.60"
molecule="C=CC(=O)Nc1ccc2c(c1)N(Cc1ccccc1)C(=O)c1cc(-c3ccc4[nH]ccc4c3)ccc1N2 [I-1]" experimental_endpoint=pEC50 assay_value="≤ 6.12"
molecule="C=CC(=O)Nc1ccc2c(c1)N(Cc1ccccc1)C(=O)c1cc(-c3ccc(N4CCNCC4)cc3)ccc1N2 [I-3]" experimental_endpoint=pEC50 assay_value="≤ 6.12"
molecule="O=C1c2cc(Br)ccc2Nc2ccc(F)cc2N1Cc1ccccc1 [I-a]" experimental_endpoint=pEC50 assay_value="≤ 6.12"

====

ASSAYED TARGET: EGFR T790M/L858R Ba/F3 cell line (Homo sapiens, UniProt P00533, T790M/L858R, cells depend on it)
Construct: The constructs were shuttled into the retroviral vector JP1540 using the BD Creator™ System (BD Biosciences)
METHOD SUMMARY: Ba/F3 cell proliferation (MTS assay), EGFR T790M/L858R
Assay type: cell-based, murine
REPORTED CONDITIONS: read-out: Ba/F3 cellular activity (EC50) T790M/L858R + Cetuximab; presence of 1 μg/mL cetuximab
Below, each of the compounds is paired with its reported EC50 value.
EXPERIMENTAL ENDPOINT: EC50

given_smiles=O=C(CCl)Nc1ccc2c(c1)N(Cc1ccccc1)C(=O)c1cc(-c3ccc4[nH]ccc4c3)ccc1N2 experimental_endpoint=EC50 assay_value="< 250 nM"
given_smiles=O=C1c2cc(Br)ccc2Nc2ccc(F)cc2N1Cc1ccccc1 experimental_endpoint=EC50 assay_value="250 to 500 nM"
given_smiles=C=CC(=O)Nc1ccc2c(c1)N(Cc1ccccc1)C(=O)c1cc(-c3ccc4[nH]ccc4c3)ccc1N2 experimental_endpoint=EC50 assay_value="500 to 750 nM"
given_smiles=C=CC(=O)Nc1ccc2c(c1)N(Cc1ccccc1)C(=O)c1cc(-c3ccc(N4CCNCC4)cc3)ccc1N2 experimental_endpoint=EC50 assay_value="≥ 750 nM"

====

ASSAYED TARGET: recombinant EGFR T790M/L858R kinase (Homo sapiens, UniProt P00533, L858R/T790M)
Construct: Constructs spanning residues 696-1022 of the human EGFR; GST (cleaved yes)
Sequence (P00533 696-1022 T790M/L858R): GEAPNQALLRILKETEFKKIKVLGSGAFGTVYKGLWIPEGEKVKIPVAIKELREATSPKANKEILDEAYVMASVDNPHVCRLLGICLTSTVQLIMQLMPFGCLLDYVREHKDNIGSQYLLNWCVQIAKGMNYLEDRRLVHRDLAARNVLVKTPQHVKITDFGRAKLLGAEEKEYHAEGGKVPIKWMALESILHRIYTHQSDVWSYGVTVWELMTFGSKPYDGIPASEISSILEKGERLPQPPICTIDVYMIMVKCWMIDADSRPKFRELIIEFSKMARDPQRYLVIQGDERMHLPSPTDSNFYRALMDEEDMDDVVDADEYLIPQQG
METHOD SUMMARY: HTRF-based EGFR biochemical assay
pIC50: −log10 of the molar value.
EXPERIMENTAL ENDPOINT: pIC50

given_smiles=O=C(CCl)Nc1ccc2c(c1)N(Cc1ccccc1)C(=O)c1cc(-c3ccc4[nH]ccc4c3)ccc1N2 assay_value="≤ 6.12"
given_smiles=C=CC(=O)Nc1ccc2c(c1)N(Cc1ccccc1)C(=O)c1cc(-c3ccc(N4CCNCC4)cc3)ccc1N2 assay_value="≤ 6.12"
given_smiles=C=CC(=O)Nc1ccc2c(c1)N(Cc1ccccc1)C(=O)c1cc(-c3ccc4[nH]ccc4c3)ccc1N2 assay_value="≤ 6.12"

Data origin: patent US20200377477A1
